Ref: patent US20140213531A1

# IC50 per record follows
Target: T1, Elastase from human neutrophils (human, UniProt P08246 30-247, limits assumed)
T1 sequence (looked up): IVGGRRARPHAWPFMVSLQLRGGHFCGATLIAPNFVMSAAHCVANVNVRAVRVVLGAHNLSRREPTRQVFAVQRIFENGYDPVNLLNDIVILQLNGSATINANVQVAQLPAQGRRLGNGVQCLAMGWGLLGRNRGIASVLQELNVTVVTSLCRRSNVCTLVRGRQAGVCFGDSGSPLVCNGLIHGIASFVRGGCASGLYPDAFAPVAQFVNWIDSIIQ
Assay: cell-based or functional assay

Worked examples, 3 binders total:
BINDER	IC50
FCTKSDPPICS (HELM PEPTIDE1{F.C.T.K.S.D.P.P.I.C.S.[dI].P}$PEPTIDE1,PEPTIDE1,2:R3-10:R3|PEPTIDE1,PEPTIDE1,1:R1-13:R2$$$V2.0; SMILES CC[C@@H](C)[C@H]1NC(=O)[C@H](CO)NC(=O)[C@@H]2CSSC[C@H](NC(=O)[C@H](Cc3ccccc3)NC(=O)[C@@H]3CCCN3C1=O)C(=O)N[C@@H]([C@@H](C)O)C(=O)N[C@@H](CCCCN)C(=O)N[C@@H](CO)C(=O)N[C@@H](CC(=O)O)C(=O)N1CCC[C@H]1C(=O)N1CCC[C@H]1C(=O)N[C@@H]([C@@H](C)CC)C(=O)N2) [Example 50]	> 100000 nmol
FCTKSDPPICS (HELM PEPTIDE1{F.C.T.K.S.D.P.P.I.C.S.[dA].D}$PEPTIDE1,PEPTIDE1,2:R3-10:R3|PEPTIDE1,PEPTIDE1,1:R1-13:R2$$$V2.0; SMILES CC[C@H](C)[C@@H]1NC(=O)[C@@H]2CCCN2C(=O)[C@@H]2CCCN2C(=O)[C@H](CC(=O)O)NC(=O)[C@H](CO)NC(=O)[C@H](CCCCN)NC(=O)[C@H]([C@@H](C)O)NC(=O)[C@@H]2CSSC[C@H](NC1=O)C(=O)N[C@@H](CO)C(=O)N[C@H](C)C(=O)N[C@@H](CC(=O)O)C(=O)N[C@@H](Cc1ccccc1)C(=O)N2) [Example 68]	> 100000 nmol
ICTKSDPPYCR (HELM PEPTIDE1{I.C.T.K.S.D.P.P.Y.C.R.[dP].P}$PEPTIDE1,PEPTIDE1,2:R3-10:R3|PEPTIDE1,PEPTIDE1,1:R1-13:R2$$$V2.0; SMILES CC[C@H](C)[C@@H]1NC(=O)[C@@H]2CCCN2C(=O)[C@H]2CCCN2C(=O)[C@H](CCCNC(=N)N)NC(=O)[C@@H]2CSSC[C@H](NC1=O)C(=O)N[C@@H]([C@@H](C)O)C(=O)N[C@@H](CCCCN)C(=O)N[C@@H](CO)C(=O)N[C@@H](CC(=O)O)C(=O)N1CCC[C@H]1C(=O)N1CCC[C@H]1C(=O)N[C@@H](Cc1ccc(O)cc1)C(=O)N2) [Example 18]	> 100000 nmol

We now examine a further binder.
Request: Consider the binder shown here: XCTASXPPQCY (HELM PEPTIDE1{[Nle].C.T.A.S.[Cha].P.P.Q.C.Y.[dP].P}$PEPTIDE1,PEPTIDE1,2:R3-10:R3|PEPTIDE1,PEPTIDE1,1:R1-13:R2$$$V2.0; SMILES CCCC[C@@H]1NC(=O)[C@@H]2CCCN2C(=O)[C@H]2CCCN2C(=O)[C@H](Cc2ccc(O)cc2)NC(=O)[C@@H]2CSSC[C@H](NC1=O)C(=O)N[C@@H]([C@@H](C)O)C(=O)N[C@@H](C)C(=O)N[C@@H](CO)C(=O)N[C@@H](CC1CCCCC1)C(=O)N1CCC[C@H]1C(=O)N1CCC[C@H]1C(=O)N[C@@H](CCC(N)=O)C(=O)N2) [Example 82] What is its recorded IC50?
Response: 18 nmol
